# TARGET_ENTITY: HMGCR (TM1-8)-GFP (Cricetulus griseus, UniProt P00347)
# Sequence (P00347 1-346): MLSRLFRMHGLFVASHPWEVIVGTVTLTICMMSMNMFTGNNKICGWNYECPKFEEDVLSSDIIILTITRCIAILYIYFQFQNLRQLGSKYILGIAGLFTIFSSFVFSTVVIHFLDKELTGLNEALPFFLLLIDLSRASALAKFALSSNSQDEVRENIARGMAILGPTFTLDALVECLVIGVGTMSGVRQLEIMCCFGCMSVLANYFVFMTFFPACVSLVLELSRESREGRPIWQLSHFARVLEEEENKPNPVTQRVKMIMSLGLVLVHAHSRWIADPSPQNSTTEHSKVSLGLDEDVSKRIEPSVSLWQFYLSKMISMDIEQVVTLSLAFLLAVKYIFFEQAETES
# MEASUREMENT_DESCRIPTION: HMGCR (TM1-8)-GFP fluorescent assay (high-content imaging) in CHG cells
# CONDITION_SET: 16 h, read-out: HMGCR (TM1-8)-GFP fluorescent intensity, mean
MEASURED_ATTRIBUTE: remaining activity at 0.1 µM (%)
Number only, in %; omit the unit.

Look up and report measured remaining activity at 0.1 µM for this entry: CC(C)CCC[C@@H](C)[C@H]1CCC2C3C(=O)C=C4C(C)(C)[C@@H](O)CC[C@]4(C)C3CC[C@@]21C (stereo partly shown)
93

Look up and report measured remaining activity at 0.1 µM for this entry: CC(C)CCC[C@@H](C)[C@H]1CCC2C3C(CC[C@@]21C)[C@@]1(C)CC[C@H](O)C(C)(C)C1=C[C@H]3N (stereo partly shown)
90.2

Look up and report measured remaining activity at 0.1 µM for this entry: CC(C)CCC[C@@H](C)[C@H]1CCC2C3CC=C4C5(CCCCC5)[C@@H](O)CC[C@]4(C)C3CC[C@@]21C (stereo partly shown)
100

Look up and report measured remaining activity at 0.1 µM for this entry: CCC1(CC)C2=CCC3C(CC[C@@]4(C)C3CC[C@@H]4[C@H](C)CCCC(C)C)[C@@]2(C)CC[C@@H]1O (stereo partly shown)
90.5

###

Consider the following compounds; for each one, report its remaining activity at 0.156 µM.
# TARGET_ENTITY: HMGCR (TM1-8)-GFP (Cricetulus griseus, UniProt P00347)
# MEASUREMENT_DESCRIPTION: HMGCR (TM1-8)-GFP fluorescent assay (high-content imaging) in CHG cells
# CONDITION_SET: read-out: Mean (HMGCR (TM1-8)-GFP signal relative to 0 μM = 100)
Number only, in %; omit the unit.

Look up and report measured remaining activity at 0.156 µM for this entry: CCC(O)(CC)CCCCC[C@@H](C)C1CCC2C3C(CC[C@@]21C)[C@@]1(C)CC[C@H](O)C(C)(C)C1=C[C@@H]3O (stereo partly drawn)
93.8

Look up and report measured remaining activity at 0.156 µM for this entry: COC(=O)CCC[C@@H](C)C1CCC2C3C(CC[C@@]21C)[C@@]1(C)CC[C@H](O)C(C)(C)C1=C[C@@H]3O (stereo partly drawn)
109

Look up and report measured remaining activity at 0.156 µM for this entry: C=CCC(O)CCC[C@@H](C)C1CCC2C3C(CC[C@@]21C)[C@@]1(C)CC[C@H](O)C(C)(C)C1=C[C@@H]3O (stereo partly drawn)
82.3

Look up and report measured remaining activity at 0.156 µM for this entry: C[C@H](CCCC(=O)O)C1CCC2C3C(CC[C@@]21C)[C@@]1(C)CC[C@H](O)C(C)(C)C1=C[C@@H]3O (stereo partly drawn)
97

Look up and report measured remaining activity at 0.156 µM for this entry: CC(O)CCCCC[C@@H](C)C1CCC2C3C(CC[C@@]21C)[C@@]1(C)CC[C@H](O)C(C)(C)C1=C[C@@H]3O (stereo partly drawn)
88

Look up and report measured remaining activity at 0.156 µM for this entry: CCC(O)(CC)CCCC[C@@H](C)C1CCC2C3C(CC[C@@]21C)[C@@]1(C)CC[C@H](O)C(C)(C)C1=C[C@@H]3O (stereo partly drawn)
86.6
